# system tested: LXRα (Homo sapiens)
# Construct: human LXRalpha (amino acid 205-447); made in house; host or cells: E. coli
# Sequence (Q13133 205-447): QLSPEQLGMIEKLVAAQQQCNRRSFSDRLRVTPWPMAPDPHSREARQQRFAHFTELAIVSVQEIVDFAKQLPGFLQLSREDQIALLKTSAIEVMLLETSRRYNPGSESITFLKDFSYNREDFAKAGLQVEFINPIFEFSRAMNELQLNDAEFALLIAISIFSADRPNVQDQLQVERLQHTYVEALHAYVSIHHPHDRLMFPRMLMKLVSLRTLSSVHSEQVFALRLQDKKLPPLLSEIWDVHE
# method notes: Co-activator recruitment assay (LXR-LBD / SRC-1 peptide, time-resolved fluorescence)
# Assay type: biochemical
# experimental setup: coactivator recruitment assays
experimental readout: pEC50
Give only the number. pEC50 is defined as minus log10 of concentration in molar units.

compound	pEC50
COCCN1C(=O)C(Nc2ccc3oc(C(C)=O)cc3c2)=C(c2ccccc2)S1(=O)=O [Example 13]	6.57

Short answer please: pEC50, LXRα (Homo sapiens), entry O=C1C(Nc2ccc(OC(F)F)cc2)=C(c2ccccc2)S(=O)(=O)N1Cc1ccc(OC(F)F)cc1 [Example 14] 7.12
